assayed-target: human ether-à-go-go-related gene (hERG) potassium channel (human)
protocol: primary screen, population patch clamp on CHO cells stably expressing hERG; higher = less effect of the substance
Screen size: about 310,000 compounds; about 2,200 (0.71%) showed an effect of 50% or more. The effect is printed as a negative number. The full list was thinned out, with strong results kept by preference.
Exercise: state measured hERG current change (%, negative = inhibition) at 1uM for each of the molecules provided.
One number for each entry, in %.

molecule	result-value
OCCOCCn1c(C2CCCN2c2nc(-c3ccc(F)cc3)cs2)nc2cc(Cl)c(Cl)cc21 (stereo not drawn)	-0.144
Cc1csc(N2CCCC2c2nc3cc(Cl)c(N4CCCCC4)cc3n2CCOCCO)n1 (stereo not drawn)	-2.57
OCCCn1c(C2CCCN2c2nc(-c3ccc(F)cc3)cs2)nc2cc(C(F)(F)F)ccc21 (stereo not drawn)	2.52
Nc1nc(/C=C/c2cccnc2)nc(-c2ccccc2O)n1	10.4
COc1cccc(NC(=S)NCc2cccnc2)c1	11.1

List hERG current change (%, negative = inhibition) at 1uM for every entry below, keeping the order given.
1. OCCOCCn1c(C2CCCN2c2nc(-c3ccc(F)cc3)cs2)nc2cc(C(F)(F)F)ccc21 (stereo not drawn)
2. COc1cccc(Nc2nnc(Cc3cccnc3)c3ccccc23)c1
3. O=c1oc2cc(Oc3ccc(C(F)(F)F)cc3[N+](=O)[O-])ccc2c2c1CCCC2
4. COc1cccc(NC(=O)Cn2nc(Cc3cccnc3)c3ccccc3c2=O)c1

1. -73.2
2. -83.2
3. 7.24
4. -8.3

* * *

assayed-target: human ether-à-go-go-related gene (hERG) potassium channel (human, UniProt Q12809)
Sequence (Q12809 whole entry, looked up): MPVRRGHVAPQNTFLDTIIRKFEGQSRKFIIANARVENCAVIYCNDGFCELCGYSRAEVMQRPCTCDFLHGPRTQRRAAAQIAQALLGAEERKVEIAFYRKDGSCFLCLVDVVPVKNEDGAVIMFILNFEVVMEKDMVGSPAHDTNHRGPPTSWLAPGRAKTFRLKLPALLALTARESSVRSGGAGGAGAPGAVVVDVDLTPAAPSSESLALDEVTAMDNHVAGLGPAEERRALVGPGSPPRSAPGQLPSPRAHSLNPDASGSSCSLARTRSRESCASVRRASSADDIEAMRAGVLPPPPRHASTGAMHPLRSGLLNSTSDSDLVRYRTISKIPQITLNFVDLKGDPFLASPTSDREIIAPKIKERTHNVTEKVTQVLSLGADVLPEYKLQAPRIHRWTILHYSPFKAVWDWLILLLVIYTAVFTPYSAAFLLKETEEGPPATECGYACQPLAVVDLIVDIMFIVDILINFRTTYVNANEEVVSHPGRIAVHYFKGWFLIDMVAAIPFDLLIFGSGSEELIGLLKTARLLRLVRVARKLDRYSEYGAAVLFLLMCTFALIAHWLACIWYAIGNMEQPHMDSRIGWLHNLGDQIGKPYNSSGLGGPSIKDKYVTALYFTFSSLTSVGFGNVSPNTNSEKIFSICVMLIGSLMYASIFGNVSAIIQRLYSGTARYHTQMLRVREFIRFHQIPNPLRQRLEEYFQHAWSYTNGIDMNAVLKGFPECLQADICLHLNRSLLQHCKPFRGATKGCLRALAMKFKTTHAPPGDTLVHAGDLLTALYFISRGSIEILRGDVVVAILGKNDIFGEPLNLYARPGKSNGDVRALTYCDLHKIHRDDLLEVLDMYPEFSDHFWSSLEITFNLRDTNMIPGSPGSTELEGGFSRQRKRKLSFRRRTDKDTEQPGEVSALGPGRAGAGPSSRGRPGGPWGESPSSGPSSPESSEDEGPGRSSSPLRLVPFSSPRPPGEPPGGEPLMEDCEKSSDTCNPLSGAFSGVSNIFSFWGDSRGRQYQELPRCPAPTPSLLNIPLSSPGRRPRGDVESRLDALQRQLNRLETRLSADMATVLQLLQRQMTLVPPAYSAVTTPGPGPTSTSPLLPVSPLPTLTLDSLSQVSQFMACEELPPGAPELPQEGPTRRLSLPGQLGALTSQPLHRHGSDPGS
protocol: primary screen, population patch clamp on CHO cells stably expressing hERG; higher = less effect of the substance
Source text: Briefly, Chinese hamster ovary (CHO) cells stably expressing the hERG channel were dislodged from tissue culture flasks and dispensed into PPC plates. […] Small molecule effects on hERG current density were quantified by […].
The whole screen tested about 310,000 compounds, of which about 2,200 (0.71%) showed an effect of 50% or more. The effect is printed as a negative number. This excerpt belongs to a sample that is enriched for strong results.
endpoint-name: hERG current change (%, negative = inhibition) at 1uM (%)
Answers are plain numbers, in %.

Observe how each entry below is paired with its result.
molecule	result-value
COc1cc2oc3ccccc3c2cc1N(CC(=O)N(C)C)S(=O)(=O)c1ccccc1	0.641
Cc1sc(NC(=O)c2ccccc2F)c(CN2CCCCC2)c1C	9.65
COc1ccc(NS(=O)(=O)c2ccc(O)c(C(=O)OCC(=O)N3CC(C)OC(C)C3)c2)cc1 (stereo not drawn)	12.3
Cc1onc(-c2ccccc2Cl)c1C(=O)N1CCN(c2ccccc2)CC1	1.1
CN1CCN(CC#CC(C)(O)C2CC3C=CC2C3)CC1.Cl (stereo not drawn)	10.8
COc1cccc2sc(NN)nc12	0.731
CCOc1ccc(NC(=O)CN(c2ccc(OC)cc2)S(C)(=O)=O)cc1	8.87
Cc1occc1C(=O)N/N=C/c1ccc(N(C)C)cc1	15.7
Cc1ccc(CSCC(=O)NCc2cccs2)cc1	7.51
Cc1cccn2c(CN3CCCC(c4ccccc4)C3)c(C(=O)N3CCOCC3)nc12 (stereo not drawn)	-53.3

Give measured hERG current change (%, negative = inhibition) at 1uM for every item shown.
1. CCOC(=O)C1CCN(C/C=C/c2ccccc2)CC1
2. Cc1cccn2c(CN3CCSCC3)c(C(=O)N3CCOCC3)nc12
3. NC(=O)C1CCN(C(=O)N2c3ccccc3Sc3ccccc32)CC1

4.64
-1.36
0.149

For each of the items listed, what is its hERG current change (%, negative = inhibition) at 1uM?
1. CCOCCCNC(=O)CNC(=S)N(Cc1ccccc1F)C1CCCCC1
2. Cc1cc[n+](CC(=O)Nc2cc(C(F)(F)F)ccc2Cl)cc1.[Cl-]
3. COc1ccc(C(CNC(=O)CN2C(=O)NC3(CCCC3)C2=O)N(C)C)cc1 (stereo not drawn)
4. O=C(CNC(=O)c1nc[nH]c1C(=O)NCC(=O)OCc1ccccc1)OCc1ccccc1
5. CCOC(=O)C1CCCN(C/C=C/c2ccccc2[N+](=O)[O-])C1 (stereo not drawn)
6. O=[N+]([O-])c1cc(C(F)(F)F)cc([N+](=O)[O-])c1NN=C1CCCCC1

-6.79
5.29
13.2
10.3
-42.6
9.66

Provide hERG current change (%, negative = inhibition) at 1uM for all items below, preserving their order.
1. CCOC(CNC(=O)Cn1nc(C)c2ccccc21)OCC
2. O=C(CSc1ncn[nH]1)c1cccc([N+](=O)[O-])c1

1. 8.42
2. 11.5

* * *

Kindly supply the reported hERG current change (%, negative = inhibition) at 1uM values for the records listed here.
assayed-target: human ether-à-go-go-related gene (hERG) potassium channel (human)
protocol: primary screen, population patch clamp on CHO cells stably expressing hERG; higher = less effect of the substance
Source text: Briefly, Chinese hamster ovary (CHO) cells stably expressing the hERG channel were dislodged from tissue culture flasks and dispensed into PPC plates. […] Small molecule effects on hERG current density were quantified by […].
The campaign covered roughly 310,000 compounds. About 2,200 (0.71%) showed an effect of 50% or more. Effects have a minus sign here. The sample as a whole holds a higher share of strong results than the screen did.
Answers are plain numbers, in %.

Known hERG current change (%, negative = inhibition) at 1uM results, listed for orientation:
compound	assayed-target	result-value
COc1ccc(-c2ccnc3nc(N4CCN(c5ccccc5)CC4)nn23)cc1	human ether-à-go-go-related gene (hERG) potassium channel (human)	14.9
O=C(c1cc([N+](=O)[O-])ccc1N1CCCCC1)N1CCCCC1	human ether-à-go-go-related gene (hERG) potassium channel (human)	-6.51
COc1ccc(S(=O)(=O)N2CCCC2CNC(=O)C(=O)Nc2ccc(C)cc2)cc1 (centres unmarked)	human ether-à-go-go-related gene (hERG) potassium channel (human)	-0.606
O=C(c1ccccc1)C1CCN(CC(=O)N2CCN(c3ccccc3)CC2)CC1	human ether-à-go-go-related gene (hERG) potassium channel (human)	10.9
CCN(c1ccccc1)S(=O)(=O)c1cccc(C(=O)NCC2(N(C)C)CCCCC2)c1	human ether-à-go-go-related gene (hERG) potassium channel (human)	-11
CC1=NNC(=O)C1CCC(=O)N/N=C/c1ccc(Cl)cc1Cl (centres unmarked)	human ether-à-go-go-related gene (hERG) potassium channel (human)	12.6
COCCCNC(=O)CC(C)c1ccccc1 (centres unmarked)	human ether-à-go-go-related gene (hERG) potassium channel (human)	8.27
CSC1=N/C(=C\c2ccccc2Cl)C(=O)N1N(C)C	human ether-à-go-go-related gene (hERG) potassium channel (human)	1.86

Return reported hERG current change (%, negative = inhibition) at 1uM values for all items listed beneath this line.
1. CC(OC(=O)c1cccc(-n2cnnn2)c1)c1nc2ccccc2c(=O)[nH]1 (centres unmarked)
2. Cc1cccc2nc(-c3ccco3)c(Nc3ccc4c(c3)OCO4)n12
3. CC(C)(C)c1nc(NCC2CCCO2)c2nnn(Cc3ccccc3)c2n1 (centres unmarked)
4. CCOC(=O)C1=NN(c2ccc(C)cc2)C2(S1)SC(C(C)=O)=C(C)N2c1ccccc1 (centres unmarked)
5. Cc1cc2cc3c(cc2nc1SCC(=O)N1c2ccccc2CC1C)OCO3 (centres unmarked)
6. Cc1ccc(NC(=S)/N=C(\N)Nc2nc(C)c3cc(C)c(C)cc3n2)cc1C

1: 7.2; 2: 5.48; 3: 13.9; 4: 8.85; 5: 5.76; 6: 8.63

* * *

assayed-target: human ether-à-go-go-related gene (hERG) potassium channel (human)
protocol: primary screen, population patch clamp on CHO cells stably expressing hERG; higher = less effect of the substance
Hit rate of the full screen: of about 310,000 compounds, about 2,200 (0.71%) showed an effect of 50% or more. The effect is printed as a negative number. The sample as a whole holds a higher share of strong results than the screen did.
endpoint-name: hERG current change (%, negative = inhibition) at 1uM (%)
One number for each entry, in %.

compound	result-value
c1cnc2ccc(C(c3nnnn3C3CCCCC3)N3CCCCC3)cc2c1 (centres unmarked)	1.89
Cc1ccc(N(CC(O)CN2CCCCC2)S(=O)(=O)c2ccccc2[N+](=O)[O-])cc1 (centres unmarked)	-48.8
Cl.O=C(NCCCN1CCOCC1)c1ccc(Cl)c(S(=O)(=O)N2CCCCCC2)c1	-18.9
CCc1ccc(NC(=O)Nc2cccs2)cc1	21.2
Cc1[nH]c2ccccc2c1/C=C/c1nc2ccccc2c(=O)n1-c1cccc([N+](=O)[O-])c1	8.08

Below are some compounds; for each one, tell me its hERG current change (%, negative = inhibition) at 1uM.
1. Cl.O=C(NCCN1CCOCC1)c1ccc(Cl)c(S(=O)(=O)N2CCCCCC2)c1
2. Cc1cc(-n2cccn2)ccc1CN1CCN(C2CCCC2)C(CCO)C1 (centres unmarked)
3. OCCC1CN(Cc2ccc(-n3cccn3)cc2)CCN1Cc1ccccc1 (centres unmarked)
4. COc1ccccc1N(CC(O)CN1CCCCC1)S(=O)(=O)c1ccc(C)cc1 (centres unmarked)
5. Fc1ccc(Cn2nnnc2C(c2cccs2)N2CCN(C3CCCCC3)CC2)cc1 (centres unmarked)
6. NS(=O)(=O)c1ccc(CNC(=O)c2cc(-c3cccnc3)nc3ccccc23)cc1

-10.3
-54.2
-28.5
2.61
-51.6
14.6

Required: hERG current change (%, negative = inhibition) at 1uM, one value per compound below.
1. Cc1cccc(CN2CCN(Cc3cccc(-n4cccn4)c3)CC2CCO)n1 (centres unmarked)
2. COc1ccc(Cn2nnnc2C(c2ccc(F)cc2)N2CCN(C3CCCC3)CC2)cc1 (centres unmarked)
3. Fc1ccc(C(c2nnnn2Cc2cccs2)N2CCN(C3CCCCC3)CC2)cc1 (centres unmarked)

[-13.6, -15, -46.6]

Dear reader, for each entry below, please note its hERG current change (%, negative = inhibition) at 1uM.
1. CN(C)CCCNc1ncc(C(F)(F)F)cc1Cl
2. Cc1ccc(CN2CCN(Cc3ccc(-n4cccn4)cc3)CC2CCO)cc1 (centres unmarked)
3. CCN(CC)S(=O)(=O)c1ccc(C2CNC(=O)C2)cc1 (centres unmarked)
4. OC1CCN(C(c2ccc3ncccc3c2)c2nnnn2C2CCCCC2)CC1 (centres unmarked)
5. O=C(Cn1cnc2cc([N+](=O)[O-])ccc2c1=O)Nc1ccccc1Cl

1. 10.3
2. -65.5
3. -53.8
4. -5.3
5. 6.18

Tell me its hERG current change (%, negative = inhibition) at 1uM on human ether-à-go-go-related gene (hERG) potassium channel (human): Fc1ccc(Cn2nnnc2C(c2cccs2)N2CCCCCC2)cc1 (centres unmarked)
0.84
